These entries and their values trace back to ChEMBL document CHEMBL4219222.

Please respond with reported inhibition for every item in the list.
Species on record: Bos taurus
Experiment: Displacement of [3H]Ro15-1788 from GABAA receptor in bovine cerebral cortex membranes at 10 uM after 90 mins by liquid scintillation counting method relative to control
Type: cell membranes
Details: Membrane
Use % as the unit, but write only the number.

Which measured inhibition value corresponds to O=c1c(-n2ccnc2)c[nH]c2c(-c3cccs3)cnn12 ?
14.7

Requested field: inhibition. Item: O=c1c(-n2cccn2)c[nH]c2c(-c3cccs3)cnn12
13.9

Consider the compound O=c1c(-n2ccnc2)c[nH]c2c(-c3ccccc3)cnn12 and give its measured inhibition.
2

Query (compound): Cc1ccc(-c2cnn3c(=O)c(-c4cc[nH]n4)n[nH]c23)cc1 ; field requested: inhibition
32

Consider the compound shown here: O=c1c(-n2cccn2)c[nH]c2c(-c3ccccc3)cnn12 What is its recorded inhibition?
59.5

// lookup inhibition for O=c1c(-c2cc[nH]n2)c[nH]c2c(-c3ccc4ccccc4c3)cnn12
20

====

Would you mind telling me the reported Ki of each entry?
Biological target: GABA A receptor alpha-5/beta-3/gamma-2 (Rattus norvegicus, UniProt P18508+P19969+P63079)
Sequence (P18508 whole entry): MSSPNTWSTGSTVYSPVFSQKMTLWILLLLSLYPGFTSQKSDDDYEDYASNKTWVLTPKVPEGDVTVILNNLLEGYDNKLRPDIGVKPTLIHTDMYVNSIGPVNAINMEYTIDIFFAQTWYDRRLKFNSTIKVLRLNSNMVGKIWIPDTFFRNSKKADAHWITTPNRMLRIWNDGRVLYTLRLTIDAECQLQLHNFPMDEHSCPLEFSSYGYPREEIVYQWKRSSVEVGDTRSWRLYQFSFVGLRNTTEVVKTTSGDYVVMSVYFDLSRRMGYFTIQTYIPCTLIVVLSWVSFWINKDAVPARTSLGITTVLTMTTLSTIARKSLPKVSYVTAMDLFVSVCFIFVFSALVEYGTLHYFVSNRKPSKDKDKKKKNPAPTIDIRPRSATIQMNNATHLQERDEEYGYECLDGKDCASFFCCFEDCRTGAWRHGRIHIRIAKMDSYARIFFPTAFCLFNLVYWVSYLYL
Sequence (P19969 whole entry): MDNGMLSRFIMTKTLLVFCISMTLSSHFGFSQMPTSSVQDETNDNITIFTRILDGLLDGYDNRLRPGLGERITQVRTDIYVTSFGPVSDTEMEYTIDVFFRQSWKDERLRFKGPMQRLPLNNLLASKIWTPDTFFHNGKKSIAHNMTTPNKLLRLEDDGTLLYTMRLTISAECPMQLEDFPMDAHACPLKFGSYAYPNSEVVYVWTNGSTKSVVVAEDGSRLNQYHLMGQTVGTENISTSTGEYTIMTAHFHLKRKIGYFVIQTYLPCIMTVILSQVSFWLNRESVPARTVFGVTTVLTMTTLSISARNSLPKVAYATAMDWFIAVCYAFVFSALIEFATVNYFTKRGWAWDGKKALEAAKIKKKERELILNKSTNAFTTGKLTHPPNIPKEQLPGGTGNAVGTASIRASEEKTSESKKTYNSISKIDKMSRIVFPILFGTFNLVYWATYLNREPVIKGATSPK
Sequence (P63079 whole entry): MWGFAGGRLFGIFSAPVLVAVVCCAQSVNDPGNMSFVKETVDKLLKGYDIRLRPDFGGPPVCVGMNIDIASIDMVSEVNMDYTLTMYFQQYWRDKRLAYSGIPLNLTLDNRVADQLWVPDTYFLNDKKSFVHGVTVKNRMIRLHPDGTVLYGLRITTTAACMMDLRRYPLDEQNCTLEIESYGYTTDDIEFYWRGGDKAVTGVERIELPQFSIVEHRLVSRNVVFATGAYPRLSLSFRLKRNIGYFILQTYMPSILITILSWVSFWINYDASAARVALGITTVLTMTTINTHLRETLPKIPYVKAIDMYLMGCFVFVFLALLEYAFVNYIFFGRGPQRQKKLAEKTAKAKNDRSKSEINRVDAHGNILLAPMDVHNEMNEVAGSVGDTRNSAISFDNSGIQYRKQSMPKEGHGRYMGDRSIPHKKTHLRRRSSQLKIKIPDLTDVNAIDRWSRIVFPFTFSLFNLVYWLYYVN
Assay: Displacement of [3H]Ro15-1788 from recombinant rat GABAAalpha5/beta3/gamma2 receptor after 90 mins by liquid scintillation counting method
Quick reminder: number only, in nM, skip the unit.

What measured Ki is associated with O=c1c(-c2cc[nH]n2)n[nH]c2c(-c3cccs3)cnn12 on GABA A receptor alpha-5/beta-3/gamma-2 (Rattus norvegicus, UniProt P18508+P19969+P63079)?
662

Find the measured Ki: item O=c1c(-c2cc[nH]n2)n[nH]c2c(-c3ccc(F)cc3)cnn12 , target or system GABA A receptor alpha-5/beta-3/gamma-2 (Rattus norvegicus, UniProt P18508+P19969+P63079).
1110

API: value(readout=Ki, system=GABA A receptor alpha-5/beta-3/gamma-2 (Rattus norvegicus, UniProt P18508+P19969+P63079)) for record O=c1c(-c2cc[nH]n2)n[nH]c2c(-c3cccc(C(F)(F)F)c3)cnn12
144

Missing value: Ki, GABA A receptor alpha-5/beta-3/gamma-2 (Rattus norvegicus, UniProt P18508+P19969+P63079), entry O=c1c(-c2cc[nH]n2)n[nH]c2c(-c3ccccc3)cnn12 . Fill in?
408

Lab note: need Ki for O=c1c(-c2cc[nH]n2)n[nH]c2c(-c3cccc(Br)c3)cnn12 on GABA A receptor alpha-5/beta-3/gamma-2 (Rattus norvegicus, UniProt P18508+P19969+P63079), anyone have it?
1120

Enter reported Ki observed with GABA A receptor alpha-5/beta-3/gamma-2 (Rattus norvegicus, UniProt P18508+P19969+P63079) for O=c1c(-c2cc[nH]n2)n[nH]c2c(-c3cccc4ccccc34)cnn12
159

Under GABA A receptor alpha-5/beta-3/gamma-2 (Rattus norvegicus, UniProt P18508+P19969+P63079): Ki value of O=c1c(-c2cc[nH]n2)n[nH]c2c(-c3cccnc3)cnn12 ?
1240

====

Provide the reported Ki of each item.
Experiment: Displacement of [3H]Ro15-1788 from GABAA receptor in bovine cerebral cortex membranes after 90 mins by liquid scintillation counting method
Type: cell membranes, Bos taurus, Membrane
Dear colleague, please return just the value in nM, with no unit written.

Dear colleague, I am looking for the recorded Ki of the following compound: O=c1c(-c2cc[nH]n2)n[nH]c2c(-c3cccc4ccccc34)cnn12
77

Returns the measured Ki for the input compound. Input: O=c1c(-c2cc[nH]n2)c[nH]c2c(-c3ccccc3)cnn12
326

// Ki lookup, key: COc1ccc(-c2cnn3c(=O)c(-c4cc[nH]n4)n[nH]c23)cc1
1610

What value of Ki has been reported for the following compound? O=c1c(-c2cc[nH]n2)n[nH]c2c(-c3ccccc3)cnn12
329

Request the reported Ki associated with O=c1c(-c2cc[nH]n2)n[nH]c2c(-c3cccc(C(F)(F)F)c3)cnn12
7.2

Entry under review: O=c1c(-c2cc[nH]n2)n[nH]c2c(-c3cccnc3)cnn12 . Reported Ki?
73.6

What does the record list as Ki for O=c1c(-c2cc[nH]n2)n[nH]c2c(-c3cccc(F)c3)cnn12 ?
152

Requested field: Ki. Item: O=c1c(-c2cc[nH]n2)n[nH]c2c(-c3ccc(F)cc3)cnn12
88.3

Could you share which Ki value was measured for O=c1c(-c2cc[nH]n2)n[nH]c2c(-c3ccc4ccccc4c3)cnn12 ?
2300

Would you kindly share the measured Ki for O=c1c(-c2cc[nH]n2)c[nH]c2c(-c3cccc4ccccc34)cnn12 ?
599

Quick check: Ki of O=c1c(-c2cc[nH]n2)n[nH]c2c(-c3cccc(Br)c3)cnn12 ?
38

What value of Ki has been recorded for this entry: O=c1c(-c2cc[nH]n2)c[nH]c2c(-c3ccccn3)cnn12
14.2

Ki for O=c1c(-c2cc[nH]n2)c[nH]c2c(Cc3ccccc3)cnn12 ?
854

Please look up its Ki: O=c1c(-c2cc[nH]n2)c[nH]c2c(-n3cccc3)cnn12
2670

Entry O=c1c(-c2cc[nH]n2)c[nH]c2c(-c3cccc(Cl)c3)cnn12 has what Ki?
95.4

Which Ki value belongs to O=c1c(-c2cc[nH]n2)n[nH]c2c(-c3cccc(Cl)c3)cnn12 ?
74

Dear colleague, I am looking for the recorded Ki of the following compound: O=c1c(-c2cc[nH]n2)n[nH]c2c(-c3ccccn3)cnn12
10.5

I'd like to know its Ki. The compound in question is O=c1c(-c2cc[nH]n2)c[nH]c2c(-c3cccnc3)cnn12
37.3

Fill blank: measured Ki of the compound O=c1c(-c2cc[nH]n2)c[nH]c2c(-c3cccs3)cnn12 is ____.
533

Request the reported Ki associated with O=c1c(-c2cc[nH]n2)n[nH]c2c(-c3cccs3)cnn12
237
